The measured values listed here are drawn from patent US9885060B2.

Tested on: OleT
measurement notes: Decarboxylation of FAs C22 to C4 employing the FDH-CamAB-OleT redox-cascade
Assay type: biochemical
particulars: 4 °C, 72 h, 10 mM substrate
Conversion strictly under 10% means rule met; at 10% or over means rule not met.

CCCCCCCCCCCC(=O)O : rule not met
CCCCCCCCCCCCCCCCCC(=O)O : rule not met
CCCCCCCCC(=O)O : rule not met
CCCCCCCCCC(=O)O : rule met
CCCCCCCC(=O)O : rule met
CCCCCCC(=O)O : rule met
CCCCCCCCCCCCCCCC(=O)O : rule not met

Consider the additional compound presented here.
Q: # strict comparison: is reported Conversion < 10%? input = `CCCCCC(=O)O`
A: rule met
